Origin of the recorded values: ChEMBL document CHEMBL1795343

Experiment: Half life in S9 microsomes
Format: ADME, subcellular, S9 fraction
Measurement Label: half-life (h)
Give just the numeric value; h need not be written.

* COc1ccccc1C(=O)c1cnc(NC2CCN(c3nc4ccccc4s3)CC2)nc1N | 0.667
* COc1ccccc1C(=O)c1cnc(NC2CCN(C(=O)Nc3ccccc3)CC2)nc1N | 1.6
* COc1ccccc1C(=O)c1cnc(NC2CCN(c3nc4ccccc4[nH]3)CC2)nc1 | 0.75
* COc1ccccc1C(=O)c1cnc(NC2CCN(C(=O)Nc3ccccc3)CC2)nc1 | 2.8

INPUT: Suppose we examine the compound COc1ccccc1C(=O)c1cnc(NC2CCN(C(=O)Cc3ccccc3)CC2)nc1N ; what half-life value has been reported?
OUTPUT: 0.533

INPUT: Suppose we examine the compound COc1ccccc1C(=O)c1cnc(NC2CCN(C(=O)Nc3ccccc3)CC2)nc1C ; what half-life value has been reported?
OUTPUT: 1.22

* * *

Assay: Aqueous solubility of the compound
Format: physicochemical
Conditions: buffer
Measurement Label: log10 solubility (log10 of the value in µM)
Hi team, quick reminder: these entries are log10 of solubility (µM).

* COc1ccccc1C(=O)c1cnc(NC2CCN(S(=O)(=O)Cc3ccccc3)CC2)nc1N | 0.30

Attention now shifts to the item below.
INPUT: Suppose we examine the compound COc1ccccc1C(=O)c1cnc(NC2CCN(C(=O)Nc3ccc(F)cc3)CC2)nc1N ; what log10 solubility value has been reported?
OUTPUT: 1.40

* * *

Tested on: MDCK
Test: Absorption quotient of the compound across MDCK cells expressing human MDR1
Type: ADME, cell-based, Canis lupus familiaris
Details: dog
The following compounds are shown together with reported AQ values.
Please give only the number in your answer, with no unit.

* COc1ccc(F)cc1C(=O)c1cnc(NC2CCN(S(C)(=O)=O)CC2)nc1N | 0.49
* COc1ccccc1C(=O)c1cnc(NC2CCN(c3nc4ccccc4[nH]3)CC2)nc1 | 0.77
* COc1ccccc1C(=O)c1cnc(NC2CCN(C(=O)Nc3ccccc3)CC2)nc1 | 0.14

INPUT: Suppose we examine the compound COc1ccc(F)cc1C(=O)c1cnc(NC2CCN(S(C)(=O)=O)CC2)nc1 ; what AQ value has been reported?
OUTPUT: 0.18

INPUT: Suppose we examine the compound COc1ccccc1C(=O)c1cnc(NC2CCN(C(=O)Nc3ccccc3)CC2)nc1N ; what AQ value has been reported?
OUTPUT: 0.63

* * *

The following molecules are shown together with reported Papp values.
Tested on: MDR1 (P-gp)
Experiment: Apparent permeability of the compound across MDCK cells expressing human MDR1 in absence of P-gp inhibitor GF120918
Format: ADME, cell-based, Canis lupus familiaris
Details: dog
Give just the numeric value; ×10⁻⁶ cm/s need not be written.

Examples with answers:
- COc1ccc(F)cc1C(=O)c1cnc(NC2CCN(S(C)(=O)=O)CC2)nc1: 56.1
- COc1ccc(F)cc1C(=O)c1cnc(NC2CCN(S(C)(=O)=O)CC2)nc1N: 27.2
- COc1ccccc1C(=O)c1cnc(NC2CCN(c3nc4ccccc4[nH]3)CC2)nc1: 11.4

INPUT: Suppose we examine the molecule COc1ccccc1C(=O)c1cnc(NC2CCN(C(=O)Nc3ccccc3)CC2)nc1N ; what Papp value has been reported?
OUTPUT: 15.1

INPUT: Suppose we examine the molecule COc1ccccc1C(=O)c1cnc(NC2CCN(C(=O)Nc3ccccc3)CC2)nc1 ; what Papp value has been reported?
OUTPUT: 39.8
